target: Streptavidin (Streptomyces avidinii) (UniProt P22629); test: compounds binding control protein streptavidin – biophysical, small-molecule microarray, 635/667 nm fluorescence, artefact control for SMM compound annotation, primary screen (AID 1147); details: higher = more signal;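 note: signal reflects streptavidin binding to arrayed compounds as a control protein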
Sequence (P22629 whole entry, looked up): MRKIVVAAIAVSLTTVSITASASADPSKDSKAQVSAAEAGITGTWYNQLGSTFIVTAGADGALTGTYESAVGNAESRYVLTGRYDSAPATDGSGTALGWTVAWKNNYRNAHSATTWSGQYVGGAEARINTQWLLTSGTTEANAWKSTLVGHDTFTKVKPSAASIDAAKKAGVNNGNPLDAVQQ

molecule	composite z-score
COC(=O)[C@@]1(Cc2ccc(F)cc2)[C@H]2c3cc(C(=O)N4CCCC4)n(Cc4ccc(Cl)c(C(F)(F)F)c4)c3C[C@H]2CN1C(=O)c1ccccc1	2.28
[N-]=[N+]=NCc1ccccc1C[C@]1(C(=O)N2CCOCC2)N=C(c2ccc(OCCCO)cc2)O[C@H]1c1ccccc1	0.981
COc1cc(NN2C(C(O)c3ccccc3)C=CC3C(=O)N(c4ccccc4)C(=O)C32)cc(OC)c1OC (stereo unspecified)	0.148
COC(=O)[C@@]1(Cc2ccccc2)[C@H]2c3cc(C(=O)N(C)C)n(Cc4ccccc4)c3C[C@H]2CN1C(=O)c1ccccc1	1.68
COc1ccc(C#Cc2ccc3c(c2)[C@]2(C(=O)N3)[C@H](c3ccc(OCCO)cc3)N3[C@H](c4ccccc4)[C@H](c4ccccc4)OC(=O)[C@H]3[C@@H]2C(=O)Nc2nc3ccccc3s2)cc1	1.07
CCOC(=O)C[C@H]1[C@H](OC(=O)c2cc3ccccc3oc2=O)[C@@H](NC(=O)c2ccc3ccccc3c2)c2cc(OCCCO)ccc2N1C(=O)c1ccccc1	0.976

====

Items are presented alongside their recorded composite z-score.
biological target: Calmodulin-1 (Homo sapiens) (UniProt P0DP23); experiment: small molecules binding Ca-loaded calmodulin-1 – biochemical, small-molecule microarray, Cy5-labelled CALM1, plus calcium, artefact control for SMM control-protein annotation, profiling panel (AID 1112); conditions: Cy5-CALM1 binding fluorescence, higher = more signal;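 note: score merges spot fluorescence with signal to noise from triplicate slides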

smiles_notation	composite z-score
COCCn1c(C(=O)N2CCCC2)cc2c1C[C@H]1CN(C(=O)c3ccccc3)[C@@](Cc3ccc(OC)cc3)(C(=O)OC)[C@@H]21	1.33
CCCCCCC#C[Si](O[C@H](c1ccccc1)c1cn([C@H](C)c2ccccc2)nn1)(C(C)C)C(C)C	-0.455
CN(C)CCCCCCNC(=O)[C@@H]1C[C@@H]2C(=O)NCC(=O)N2[C@@H]1c1cccc(OCCO)c1	-0.708
COCCCNC(=O)[C@]1(Cc2ccccc2N=[N+]=[N-])N=C(c2ccc(OCCCO)cc2)O[C@@H]1c1ccccc1CN=[N+]=[N-]	0.813
COc1ccccc1CN1C(=O)c2ccccc2[C@](Cc2ccccc2I)(C(=O)NCc2ccccc2)[C@@H]1c1ccc(CO)cc1	0.556
COc1ccc(C#Cc2ccc3c(c2)[C@]2(C(=O)N3)[C@H](C(=O)N3CCN(c4ncccn4)CC3)[C@H]3C(=O)O[C@H](c4ccccc4)[C@H](c4ccccc4)N3[C@@H]2c2ccc(O)cc2)cc1	0.0193
C=CCN1C(=O)[C@@]2(O[C@@H](CCO)[C@H]([Si](C)(C)c3ccc(OC)cc3)[C@H]2C)c2cc(NC(C)=O)ccc21	0.509

====

assay: plasmodial surface anion channel blockers, osmotic lysis – cell-based, P. falciparum Indochina, OD700, 2 h, primary screen (AID 1155);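 note: lysis reports solute entry through the parasite surface anion channel PSAC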; settings: P. falciparum Indochina infected erythrocytes, called active from +8 up or from −8 down
Activity calls are given as the source filed them.
Classes used: TRUE for active, FALSE for inactive

molecule	group_label
O=C1c2ccccc2[C@@]2(Cc3ccccc3N(Cc3ccccc3)C2=O)[C@H](c2ccc(CO)cc2)N1Cc1ccccc1C(F)(F)F	FALSE
C=CCC(OC(C)=O)[C@@H]1[C@@H](N(Cc2cc3ccccc3o2)C(=O)c2ccc(-c3ccccc3)cc2)c2cc(OCCCO)ccc2N1C(=O)Cc1ccc2ccccc2c1 (some centres not stated)	FALSE
CCCNC(=O)[C@@]1(C)c2ccccc2C(=O)N(Cc2ccc(OC(F)(F)F)cc2)[C@H]1c1ccc(CO)cc1	FALSE
C=C[C@H](C)[C@H](O)c1ccc(OCCO)cc1	FALSE
COc1ccc([Si](C)(C)[C@@H]2[C@@H](CCO)O[C@]3(C(=O)N(Cc4cccc(N(C=O)c5ccccc5)c4)c4ccccc43)[C@H]2C)cc1	FALSE
CC(=O)N1Cc2ccccc2C[C@@]2(N=C(c3ccc(OCCCO)cc3)O[C@H]2c2ccccc2)C1=O	TRUE
CCCNC(=O)[C@@]1(C)c2ccccc2C(=O)N(Cc2cc(F)cc(C(F)(F)F)c2)[C@H]1c1ccc(CO)cc1	FALSE

====

assay: JC-1 mitochondrial potential readout, lung cancer cells – cell-based, A549, JC-1 fluorescence, basal, 24 h, 100 nL, profiling panel (AID 1138); conditions: higher = more signal;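 note: A549 lung adenocarcinoma cells under basal conditions with no added stimulus; test concentration not given here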

compound	z-score
O=C1O[C@H](c2ccccc2)[C@H](c2ccccc2)N2[C@H]1[C@@H](C(=O)NC[C@H](O)c1ccccc1)[C@]1(C(=O)Nc3ccc(C#CC4(O)CCCCCC4)cc31)[C@H]2c1ccccc1OCCO	-1.24
COc1ccc([Si](C)(C)[C@@H]2[C@@H](CCO)O[C@]3(C(=O)N(Cc4ccccc4)c4ccc(N(C=O)c5ccccc5)cc43)[C@H]2C)cc1	-0.276
COc1cc2c(cc1O)C(c1ccc(CN3CCCC3)cc1)N(Cc1sc3ccccc3c1Cl)CC2 (centres undefined)	-0.763
C=CC[C@@]1(C(=O)NCc2ccccc2)N=C(c2ccc(OCCCO)cc2)O[C@@H]1c1ccccc1CN=[N+]=[N-]	0.903

====

Items are presented alongside their recorded composite z-score.
test: probe aInhba binding on compound microarray – biochemical, small-molecule microarray, 635/667 nm fluorescence, primary screen (AID 1148); settings: higher = more signal;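 note: score merges 667nm spot fluorescence with signal-to-noise for antibody binding to printed compounds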

molecule	composite z-score
Cc1cccc(/C=C/C=O)c1	-0.0963
CC(C)C(O)C1C=CC2C(=O)N(C)C(=O)C2N1N1CCCCC1 (stereo not given)	-0.0704
COCCCNC(=O)[C@@]1(Cc2ccccc2I)c2ccccc2C(=O)N(Cc2ccccc2)[C@H]1c1ccc(CO)cc1	-0.176
CN(C)CCCC[C@@H]1NC(=O)[C@@H]2C[C@H](C(=O)NCc3ccc(F)cc3)[C@H](c3cccc(OCCO)c3)N2C1=O	0.374
O=C(N1CCCCC1)[C@]1(CCS(=O)(=O)c2ccccc2)N=C(c2ccc(OCCCO)cc2)O[C@@H]1c1ccccc1	0.461

====

test: JC-1 mitochondrial potential readout, lung cancer cells – cell-based, A549, JC-1 fluorescence, basal, 24 h, 100 nL, profiling panel (AID 1138); conditions: higher = more signal;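 note: A549 lung adenocarcinoma cells under basal conditions with no added stimulus; test concentration not given here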
Mark fulfilled for reported z-score of 0.8 or greater; mark not fulfilled for anything smaller.

compound	group_label
CCOC(=O)C[C@H]1[C@H](OC(=O)c2ccc(C(=O)c3ccccc3)cc2)[C@@H](NC(=O)c2ccc3ccccc3n2)c2cc(OCCCO)ccc2N1C(=O)c1ccc2ccccc2n1	fulfilled
C=CCC(OC(C)=O)[C@@H]1[C@@H](N(Cc2ccc(-c3ccccc3)cc2)C(=O)c2ccc(C)cc2)c2cc(OCCCO)ccc2N1C(=O)Cc1ccc(OC)cc1 (stereo partly specified)	fulfilled
C#C[C@H]1Oc2ccccc2S(=O)(=O)N2CCC[C@@H]12	not fulfilled
O[C@@H](Cc1ccccc1)[C@@H](/C=C/c1ccccc1)NCc1ccccc1Br	not fulfilled
[N-]=[N+]=NCc1ccccc1C[C@]1(C(=O)NCCN2CCOCC2)N=C(c2ccc(OCCCO)cc2)O[C@H]1c1ccccc1CN=[N+]=[N-]	fulfilled
CCCCCN1CC=CC23O[C@@H]4C=CCCOC(=O)C4[C@H]2C(=O)N(CCCO)[C@@H]3C1=O (stereo partly specified)	not fulfilled
C=CCC(OC(C)=O)[C@@H]1[C@@H](N(Cc2ccc(-c3cccc(C(F)(F)F)c3)o2)C(=O)c2ccc(C)cc2)c2cc(OCCCO)ccc2N1C(=O)c1ccc2ccccc2n1 (stereo partly specified)	not fulfilled
CCOC(=O)C1=CC[C@@H](c2cccc(Cl)c2)N(S(=O)(=O)c2ccc(C)cc2)[C@H]1c1ccc(C#N)cc1	fulfilled
O=C1OCC=C[C@H]2OC34C=CCN(Cc5ccccc5)C(=O)[C@H]3N(CCCO)C(=O)[C@@H]4[C@@H]12 (stereo partly specified)	not fulfilled
C=C(COC)C(=O)CC[C@@H](OC(=O)c1ccccc1-c1ccccc1C(=O)O)c1ccc(CO)o1	not fulfilled
C=CC[C@@]1(C(N)=O)N=C(c2ccc(OCCCO)cc2)O[C@@H]1c1ccccc1N=[N+]=[N-]	not fulfilled
Cc1ccc([C@H]2C(C(=O)O)=C[C@@H](C(C)C)N2S(=O)(=O)c2ccc(C)cc2)cc1	not fulfilled
CC(C)[Si]1(C(C)C)O[C@@H](c2ccccc2)c2cc(-c3ccc(-c4ccc(Cl)c(Cl)c4)o3)nc(CCc3ccccc3)c21	not fulfilled
O=C(NCC(O)CO)[C@@]1(Cc2ccccc2)COC(c2ccc(OCCCO)cc2)=N1 (stereo partly specified)	not fulfilled
[N-]=[N+]=NCc1ccccc1[C@@H]1OC(c2ccc(OCCCO)cc2)=N[C@]1(Cc1ccccc1)C(=O)O	fulfilled

====

Items are presented alongside their recorded composite z-score.
test system: Neuregulin-1 EGF-like domain; test: small molecules binding NRG1 EGF domain – biochemical, small-molecule microarray, 635 nm fluorescence, primary screen (AID 1081); details: higher = more signal;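 note: binding of the protein to compounds printed on small-molecule microarray slides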
measured_parameter: composite z-score

compound	measured_target	measured_number
CCCC[C@@H]1C[C@H]1[C@@H](NC(=O)c1ccccc1)c1ccc(-c2ccccc2)cc1	Neuregulin-1 EGF-like domain	0.341
CC(C)(C)OC(=O)CC[C@@]1(C(=O)N2CCOCC2)N=C(c2ccc(OCCCO)cc2)O[C@@H]1c1ccccc1N=[N+]=[N-]	Neuregulin-1 EGF-like domain	1.29
COCCOC(=O)N1C(=O)[C@@]2(c3cc(C#CC4(O)CCCCCC4)ccc31)[C@H](c1ccc(O)cc1)N1[C@H](c3ccccc3)[C@H](c3ccccc3)OC(=O)[C@H]1[C@@H]2C(=O)N1CCc2cc(OC)c(OC)cc2C1	Neuregulin-1 EGF-like domain	0.0919
[N-]=[N+]=NCc1ccccc1C[C@]1(C(=O)NCCN2CCOCC2)N=C(c2ccc(OCCCO)cc2)O[C@H]1c1ccccc1CN=[N+]=[N-]	Neuregulin-1 EGF-like domain	1.2
C=C(C(=O)CC[C@@H](OC(=O)c1cccnc1)c1ccc(OCCO)cc1)C(C)C	Neuregulin-1 EGF-like domain	1.06
CS(=O)(=O)CCOC(=O)C1=CC(c2ccc(CO)cc2)=CC(c2cccs2)N(Cc2cccc(OC(F)(F)F)c2)C=C1C(=O)OCCS(C)(=O)=O (configuration not stated)	Neuregulin-1 EGF-like domain	0.999
COc1ccc(C(O)C2C=CC3C(=O)N(c4ccccc4)C(=O)C3N2Nc2ccccc2)c2ccccc12 (configuration not stated)	Neuregulin-1 EGF-like domain	1.04
